tested on: Lefty1; experiment: Lefty1 protein binding to printed compounds – biochemical, small-molecule microarray, 635/667 nm fluorescence, primary screen (AID 1139); settings: fluorescence 635/667, higher = more signal
# composite z-score >= -0.1 gives label 1, anything below gives label 0

Solved entries:
1. COc1ccc(CCNC(=O)[C@@]2(Sc3ccc(C)cc3)CC(=O)N(Cc3ccccc3C(F)(F)F)[C@@H]2c2ccc(CO)cc2I)cc1; label 0
2. CC1CC/C=C\[C@H]2OC34C=CCN(Cc5ccccc5)C(=O)[C@H]3N(C(CO)C(C)C)C(=O)[C@@H]4C2C(=O)O1 (some centres not stated); label 0
3. CO[C@H]1O[C@H](CO)[C@@H](OC(=O)Nc2ccc(Br)cc2)[C@@H]2OC(=O)[C@@H](Cc3ccccc3)C/C=C/C[C@H](Cc3ccccc3)C(=O)O[C@@H]12; label 1
4. C=CCNC(=O)[C@@H]1[C@H]2C(=O)O[C@H](c3ccccc3)[C@H](c3ccccc3)N2[C@H](c2ccccc2OCCO)[C@@]12C(=O)Nc1ccc(C#CCC(C(=O)OC)C(=O)OC)cc12; label 1

INPUT: Determine whether this molecule has composite z-score no lower than -0.1: CCOC(=O)C[C@H]1[C@H](OC(=O)c2ccc(C(=O)c3ccccc3)cc2)[C@@H](NC(=O)CC(C)C)c2cc(OCCCO)ccc2N1C(=O)c1ccccc1
OUTPUT: label 1

INPUT: # bool: composite z-score of CCCC=C(CCC)[C@@H](NS(=O)(=O)c1ccc(C(F)(F)F)cc1)c1ccccc1 >= -0.1
OUTPUT: label 0

INPUT: Does composite z-score meet or surpass -0.1 for CCCCN1CC=CC23O[C@@H]4/C=C\CCCOC(=O)C4[C@H]2C(=O)N(CCO)[C@@H]3C1=O (some centres not stated) ?
OUTPUT: label 0
